apparent KD of K4 kissing-loop reporter values by entry
Test system: K4 kissing-loop RNA reporter;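 further: bound reporter read as fluorescence of individual clusters on recovered sequencing chips by microscopy, with normalized cluster intensities fitted with a binding model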
Test: apparent KD of K4 kissing-loop reporter; higher = weaker reporter binding
Conditions: Eterna round: R107; input ligand: theophylline 20 uM

polymer.sequence: UCCUGCAAUCGCCCACGAAAGUGGAUCGAUACCAGAGUCGAAAGACUCCCUUGGCAGCGAGUGAUGUUCGAAGCAGGUAAAUAAA
apparent KD of K4 kissing-loop reporter, nM: 605

polymer.sequence: AUUCACCUGUCGGCCGCCACUGCGUUAGCAGUAUCGGGCAGAAACUUCGCAGUGAUGUUGCGACUCAGGACCGGGACGUUGAGGA [theeternabot_exclusion_KL_Trp_B_29]
apparent KD of K4 kissing-loop reporter, nM: 454

polymer.sequence: UAGCGUAUCAGAGGAUAUGAUAUGUUAUGCAGUGAUGUUGCAUGAUGUAGCAGAAUUCUGAGUGUAUCAGAAGGCUGAUAUGCUA [FMN B Ex t3]
apparent KD of K4 kissing-loop reporter, nM: 78.9

polymer.sequence: AUUUAAUUAACUGAUACCAGACUUUUUGUUUUGUUUAUUACUAGUGAUGUUAGUGUUUCUGUCCCUUGGCAGCAGAAUCUACUUA [JR_ExcTheophyB_Sub019]
apparent KD of K4 kissing-loop reporter, nM: 364

polymer.sequence: AGUCCGCUCCAAGGAUAUAGUCCGGCUGCGCGUCAGUGAUGUUGAAGAAGUAUCGCGUCUCUAUAGCUAGAAGGUGGCGCAAUUG [theeternabot_sameState_KL_FMN_B_20]
apparent KD of K4 kissing-loop reporter, nM: 696

polymer.sequence: GGCACGGUGACGCGGCUGCCGUGCGCUUGGGAGGAUAUGUUUCGUGACAGAAGGCCCAGUGAUGUUGGGUCUGUUCAAAAGGACU [Edmatianri]
apparent KD of K4 kissing-loop reporter, nM: 121

polymer.sequence: CCUAUCUCAUACGAUACCAGUCGUCGAGUGAUGUUCGAUUAAAUAUAUUUGCCAAAUAACGACCCUUGGCAGCGUAUGGGAUAGG [Ex Theophylline B K4 17]
apparent KD of K4 kissing-loop reporter, nM: 417

polymer.sequence: UUUGGUUUCUCGGCCGCCACUCGUGGGAAAUGGGCCUCAGGGAUAUAGUGAUGUUAUGUAAAGAAGAGGACCGGGAGAAGGAAGG [ExTryptoB.Dl]
apparent KD of K4 kissing-loop reporter, nM: 208

polymer.sequence: AAAAUAAAGCAGUGAUGUUGCAUAUGAGAAGGAGCGCACGAAAGUGCAGGUAGGUCGCUCAGCCAAGUGGACGAAAACGUCCACA [#OpenEnded 9 #K4Early]
apparent KD of K4 kissing-loop reporter, nM: 168

polymer.sequence: ACUGAAAGAUCUGAUACCAGACUUUUUGUAUUUAUUAAAACUAGUGAUGUUAGUUUAUCUGUCCCUUGGCAGCAGUUUCUACAGA [JR_Nu_ExcTheophyB_Sub023]
apparent KD of K4 kissing-loop reporter, nM: 134

polymer.sequence: AAUAAGCGCCGAAGGAGCGGCCUCCGAGUGAUGUUCGGUGAGAUGCCAGUGAUGUUGGCCGGCCAGGUAGGUCGCGGCAAAGCUU [Same State Arginine B GF 29]
apparent KD of K4 kissing-loop reporter, nM: 131

polymer.sequence: GGAUAGGACAGAGGAUAUCUCUGAGGCAAGAAAACUUGUCUCUAAAGAGAUGACUCAGUGAUGUUGAGAGAAGGCUGUCCUAUCG [FmnBX 9 - #SwitchBubble #StaticStem]
apparent KD of K4 kissing-loop reporter, nM: 155

polymer.sequence: UUAGUCAGAUUAUUAUUAGCCUGCGAGACUAAGGAUAUCCGAAUUCGGAGAAGGUAGUGAUGUUACUUUGGCAGGCACUGACAUU [AK8 Exc FMN A]
apparent KD of K4 kissing-loop reporter, nM: 643

polymer.sequence: GUGCGGCUAGUGAUGUUGGUUGUGUGGGAAGGAGCGCAGAUUCAUGCAGGUAGGUCGCCCACACCUCUGAAAGGAGGCUAAUUCA [KL-SSArg-A16]
apparent KD of K4 kissing-loop reporter, nM: 368

polymer.sequence: GGAUAGGACACAGGAUAUGGGCUAGGCAAGAAUAACUUGUCUAGCAAAUCCAUGAGGAGUGAUGUUCCAGAAGGGUGUCCUAUCG [FmnBX 1 C11+G75]
apparent KD of K4 kissing-loop reporter, nM: 97.3

polymer.sequence: UGUCAUUGGUCUGAUACCAGUACCCUUGGCAGCCAAGGAGUGAUGUUCCAAGGAUACCAGUACCCUUGGCAGCAGACCGAUGACU [TheoBS 25 #DoubleAptamer #SwitchBubble]
apparent KD of K4 kissing-loop reporter, nM: 194

polymer.sequence: UGUUUUUACUGAAGGAGCGGCAAUUGAUACGUAGAUAUAGUGAUGUUAUAUAAGAUAGAGAGCCAGGUAGGUCGCAGAGUGUAUC [ExArgB.aB]
apparent KD of K4 kissing-loop reporter, nM: 172

polymer.sequence: UUUUUGGAGAAUUAUAGUGAUGUUAUGAAGGAGGAUAUCUGGAGAUGGAGAAGGCCUAGUGGCUCAGGGAUGGAGGGUGGGUGGG [ExFMNA.Y]
apparent KD of K4 kissing-loop reporter, nM: 655

polymer.sequence: AAAGAGUCACUCGAAGCUAUCGAAGAUAGGCGAGGACCGGUACGGCCGCCACUCGGAGUGAUGUUCCGAAGACUGUAAAAUAAAA [MatMod 12 - Jieux - Exclusion - Tryptophan A]
apparent KD of K4 kissing-loop reporter, nM: 170

polymer.sequence: AUGGUUGUCGUAGGAUAUGUAGGUAAUUCCUAUAGCAGUGAUGUUGCUAAUAUCUUGGAAGAAGGAACAGAAGGACGAUAACCAC [KL-SSFMN-B1 #analogue]
apparent KD of K4 kissing-loop reporter, nM: 109

polymer.sequence: ACACUUUACGUAGGAUAUGCGACGAGUGAUGUUCGUCAGGCGGCUUUAGCUUAAUCAGGCCGCCUAGCAGAAGGACGGGCAGUGU [Zaretiesre]
apparent KD of K4 kissing-loop reporter, nM: 195

polymer.sequence: UAUAUAGUGACGGCCGCCACUAUAUUAAUGUUUUUGUUAGAGUGAUGUUUUGAUUAAUAUUUUUAUAGGACCGGGUUAUAUGUUA [xzzxmullin]
apparent KD of K4 kissing-loop reporter, nM: 628

polymer.sequence: CUAUGGAAACAUAGUGAUCGGGAAACCGAUACCAGUAUGGAAACAUACCCUUGGCAGCGGAAUGAUCUAACGGAGUGAUGUUCCG [Theophylline A K4 23]
apparent KD of K4 kissing-loop reporter, nM: 389

---

System: MS2 coat protein
Experiment: apparent KD of MS2 coat protein; designed switch direction (-1 OFF switch, 1 ON switch): 1; higher = weaker reporter binding
Conditions: input ligand: none
apparent KD of MS2 coat protein values by entry

polymer.sequence: GGUCCAGCCUGAGCUGGACAAAAGCAUGUACAUGAGGAUCACCCAUGUUAUGUACAAGCUUUUUGCUCGUCUUAAAA [JL mod - D87 - 10] (Eterna round: R96, puzzle: Sensor for hsa-mir-208a)
apparent KD of MS2 coat protein, µM: 0.188
//
polymer.sequence: AGGCUCAGACGAGGAUAUACGUGGUCACAUGAGGAUCACCCAUGUCUCGAGCUUCGGCUCGAGGCGUAGAAGGCGUCUGAGCCA [SSNG2/6-A1] (Eterna round: R96, puzzle: Same State NG 2)
apparent KD of MS2 coat protein, µM: 0.268
//
polymer.sequence: GCUAGAAUUAAAGCCAACAUGAGGAUCACCCAUGUAUGUUGGCAGGAUAUCGUUUGCAAAGCAAACGAGAAGGGCCAUACUAGC [Mat - Same State NG 3 - JL Mod - D22] (Eterna round: R96, puzzle: Same State NG 3)
apparent KD of MS2 coat protein, µM: 0.118
//
polymer.sequence: AAAGGAUGAUUAUACAUGAGGAUCACCCAUGUUUGUAAUACUAAGGAUAUGUGACUUAAUUGUGAACAGAAGGUAGGUUCAUGA [AK SSNG3-V2-1] (Eterna round: R96, puzzle: Same State NG 3)
apparent KD of MS2 coat protein, µM: 0.0622
//
polymer.sequence: AACAUGAGGACAUGAACAUGAGGAUCACCCAUGUAUGUUUAUAAGGAUAUAUGAGGAGGAGGAGAAUAGAAGGUAUAGGGAGGG [This also seems to work] (Eterna round: R96, puzzle: Same State NG 3)
apparent KD of MS2 coat protein, µM: 0.0432
//
polymer.sequence: GCUAGGAAUUAAGCCAACAUGAGGAUCACCCAUGUAUGUUGGUAGGAUAUCGUUUGCUUUGCAAACGAGAAGGGCUAACCUAGC [JL SSNG3 1.25] (Eterna round: R96, puzzle: Same State NG 3)
apparent KD of MS2 coat protein, µM: 0.0581
//
polymer.sequence: GUAGCAUACCGAGGAUAUUCAUAUAAUAAAUAACAUGAGGAUCACCCAUGUUGGCGAAAGCCUUGGGAGAAGGCGGAAUGCUAC [Xeonanis - 20 Mod56] (Eterna round: R96, puzzle: Same State NG 2)
apparent KD of MS2 coat protein, µM: 0.0555
//
polymer.sequence: GUUACAUGAGGAUCACCCAUGUAUGUGUGGGAGUAAGUGUCUUAGGAUAUCUAGUAUUUAAUUCAAGAGAAGGAAGAUUGUUGU [JMF's solution 68] (Eterna round: R96, puzzle: Same State NG 3)
apparent KD of MS2 coat protein, µM: 0.122
//
polymer.sequence: CUGAGAAGUCAAGGAUAUCACGUCGAUUAGACGUGAGAAGGUGAUCAGUACAUGAGGAUCACCCAUGUGUUACAUGGAACUCAG [Brourd's SSNG1/1-A2 mod 8] (Eterna round: R96, puzzle: Same State NG 1)
apparent KD of MS2 coat protein, µM: 1.11
//
polymer.sequence: CUUUAUCACUAUACAUGAGGAUCACCCAUGUUAUCAUCAUGAGAGGAUAUCGUAAUAGGAUUUUUCGAGAAGGCUCUAAAGUAU [JR_SSNG3_Sub078] (Eterna round: R96, puzzle: Same State NG 3)
apparent KD of MS2 coat protein, µM: 0.142
//
polymer.sequence: CUGAGAUGUCAAGGAUAUGCUACCGUUUCGGUAGCAGAAGGUGAUCACAUGAGGAUCACCCAUGUAUGCAUGCGUGAGCGUGCU [JL SSNG1 3.59] (Eterna round: R96, puzzle: Same State NG 1)
apparent KD of MS2 coat protein, µM: 0.062
//
polymer.sequence: CUGCUCGUGUGAGGAUAUGCCGCCGUUUCGGCUGCAGAAGGUGCUACGUUACAUGAGGAUCACCCAUGUCUCUGUUGUUUCGUC [salish99_SSNG1_r04_946] (Eterna round: R96, puzzle: Same State NG 1)
apparent KD of MS2 coat protein, µM: 0.0313
//
polymer.sequence: GUUGAAUUGCAAGGAUAUCUUAGUCAGACGCUAAGAGAAGGUGCUUUACAGUUACAUGAGGAUCACCCAUGUCUUUCUUUUGAU [Jens NG1-01] (Eterna round: R96, puzzle: Same State NG 1)
apparent KD of MS2 coat protein, µM: 0.0285
//
polymer.sequence: UGUACCUUCAUAGGAUAUCAUGCGAAAAUUGCGUGAGAAGGGUGAAUACUGUCUUUCUAAGAGUACAUGAGGAUCACCCAUGUA [SameState NG1 #62] (Eterna round: R96, puzzle: Same State NG 1)
apparent KD of MS2 coat protein, µM: 0.152
//
polymer.sequence: GGAGCCGGCCUAGGAUAUUUCAUAUUAAAACAUGAGGAUCACCCAUGUAGGCCAGAAGGCCUUGGGAAGAAGGAGGUCGGCUCC [Loop Effect - U25,U26] (Eterna round: R96, puzzle: Same State NG 2)
apparent KD of MS2 coat protein, µM: 0.0878
//
polymer.sequence: AGCCGAGACUGAGGAUAUAGAAAUCUACAUGAGGAUCACCCAUGUAACAACACGUGGUAGUGAUUCUAGAAGGCGGCUCGGCGC [Omei SS(NG)2 Cv4] (Eterna round: R96, puzzle: Same State NG 2)
apparent KD of MS2 coat protein, µM: 1.15
//
polymer.sequence: AUAAACAGGCUAGGAUAUCCGGAAACUACAGGGCACAACCCUAUAGACAUGAGGAUCACCCAUGUGGAGAAGGAGCCACAUGAA [Ceesis] (Eterna round: R96, puzzle: Same State NG 2)
apparent KD of MS2 coat protein, µM: 0.195
//
polymer.sequence: GUUACAUGAGGAUCACCCAUGUGUGUGUGGGAGUGAGUGGCUUAGGAUAUCUAUGAUUUAAGUUAAGAGAAGGAAGAUUGUUGU [SS-NG3-LRO03] (Eterna round: R96, puzzle: Same State NG 3)
apparent KD of MS2 coat protein, µM: 0.352
